# system_tested: Solute carrier family 2, facilitated glucose transporter member 1 (Homo sapiens)
# experimental_protocol: ST_JUDE_LEISH: Cytotoxicity at 2uM final concentration against transgenic Leishmania Mexicana promastigotes LmGLUT1 that are glucose transport deficient and complemented with the human glucose transporter GLUT1. Activity is measured by DNA content using SYBR green in vitro
# Assay type: functional
measured_metric: inhibition (%)
Could you give me the number in %? Just the number is fine.

Use the examples below as a reference point.
CCN1CCc2nc3ccccc3c(C(=O)Nc3ccc(C#N)cc3)c2C1 : -0.12
Nc1ncc(-c2ccsc2)cc1-c1nc2ccccc2[nH]1 : 2.86
CN(C)CCCNc1ncnc2c1[nH]c1ccc(Cl)cc12 : 1.91
Cc1cccc2nc(-c3ccc(-c4ccc(NC(=O)C(=O)c5cccn5C)cc4)cc3)[nH]c12 : 5.06
CCOC(=O)c1[nH]c2cc(Cl)cc(Cl)c2c1/C=C/C(=O)Nc1ccc(-c2cnc(NC(C)=O)[nH]2)cc1 : -1.61

Attention now turns to another entry.
Exam item: Find the recorded inhibition belonging to c1ccc2[nH]c(Nc3ccc(Nc4nc5ccccc5[nH]4)cc3)nc2c1 and report it.
Marked response: 0.45

---

# system_tested: Solute carrier family 2, facilitated glucose transporter member 1 (Homo sapiens)
# experimental_protocol: ST_JUDE_LEISH: Cytotoxicity at 2uM final concentration against transgenic Leishmania Mexicana promastigotes LmGLUT1 that are glucose transport deficient and complemented with the human glucose transporter GLUT1. Activity is measured by DNA content using SYBR green in vitro
# Type: functional
inhibition values for the compounds below.
Numbers only here, please. The scale is %.

See these solved cases before continuing.
COc1ccc(CCN(C)CCc2ccc(NC(=O)c3cccc4c(=O)c5ccccc5sc34)cc2)cc1 : 2.21
CCOC(=O)CNC(=O)c1cc(=O)c2ccccc2o1 : 0.86

Exam item: // inhibition lookup, key: COc1ccc(CN2CCC(CNCc3cccc(-c4ccccc4)c3)CC2)cc1
Marked response: 3.34

Exam item: Try CN(C)CCn1c(N)c(-c2nc3ccccc3s2)c2nc(C#N)c(C#N)nc21 next.
Marked response: 2.02

Exam item: How about Cc1cccc(C(=O)N2CCN(Cc3cccc(NC(=O)c4cccs4)c3)CC2)c1 ?
Marked response: 7.96

---

# system_tested: Hexose transporter 1 (Plasmodium falciparum)
# experimental_protocol: ST_JUDE_LEISH: Cytotoxicity at 2uM final concentration against transgenic Leishmania Mexicana promastigotes LmPfHT that are glucose transport deficient and complemented with the Plasmodium falciparum hexose transporter. Activity is measured by DNA content using SYBR green in vitro
# Assay type: functional
measured_metric: inhibition (%)
Hi! Could you send only the number? It should be in %, unit omitted.

Completed entries (count: 5):
COc1cccc2c(Oc3ccccc3C)ccnc12 : -1.86
Cc1ccc(Nc2nc3cc(Nc4ccnc(Nc5cccc(CS(C)(=O)=O)c5)n4)ccc3o2)cc1 : 2.49
CC(=O)Nc1ncc(C(=O)Nc2cccc(-c3ccc(-c4nc5ccccc5[nH]4)cc3)c2)s1 : 1.26
COc1cc2ncnc(Nc3ccc(OCc4ccccc4)c(C(F)(F)F)c3)c2cc1OC : 0.75
O=C(/C=C/c1ccc2ccccc2c1)NCC1(c2ccc(-c3ccccc3)cc2)CCOCC1 : 2.55

Exam item: Look up inhibition with Hexose transporter 1 (Plasmodium falciparum) for this compound: Cc1cc(=NN=Cc2ccc(Cl)cc2)c2ccccc2[nH]1
Marked response: 6.86

Exam item: # iterate: O=C(Nc1ccccc1)N(Cc1cccc(-c2ccc(CNCCc3ccccc3)cc2)c1)C1CCN(Cc2ccccc2)CC1
Marked response: -0.56

Exam item: One more compound: O=C(NC1CCN(Cc2ccccc2)CC1)c1ccc2c(=O)n(Cc3ccc(Cl)cc3)c(=S)[nH]c2c1
Marked response: -0.17

Exam item: Lookup O=c1c2c([nH]c3cc(Cl)ccc13)CCCC2
Marked response: 3.08

Exam item: Repeat with Cc1cc(CN2CC[C@H](NC(=O)c3ccc(Cl)c(Cl)c3)C2)ccc1OCCN1CCCC1
Marked response: 1.81

---

Recorded inhibition values for a group of compounds are listed next.
# system_tested: Solute carrier family 2, facilitated glucose transporter member 1 (Homo sapiens)
# experimental_protocol: ST_JUDE_LEISH: Cytotoxicity at 2uM final concentration against transgenic Leishmania Mexicana promastigotes LmGLUT1 that are glucose transport deficient and complemented with the human glucose transporter GLUT1. Activity is measured by DNA content using SYBR green in vitro
# Type: functional
Dear colleague, please return just the value in %, with no unit written.

# example entries with known answers
Oc1ccc(CCNc2nc(NCCCOc3ccccc3-c3ccc(C(F)(F)F)cc3)nc(N3CCNCC3)n2)cc1 : -0.03
O=C(c1ccc([N+](=O)[O-])o1)N1CCN(c2nc3c(Cl)cccc3s2)CC1 : 39.8
Cn1cccc1CCNCc1ccc(-c2cccc(-c3nc4cc(F)ccc4[nH]3)c2)cc1 : 3.65
Cc1cc(N(CCO)CCCN2CCCCC2)nc(Nc2ccc(Cl)cc2)n1 : 1.77
CC(C)n1nc(C(=O)N2CCN(c3ccccc3)CC2)c2ccccc2c1=O : 1.27
COc1ccccc1C1CCN(C2CCC(NC(=O)/C=C/c3ccc4c(c3)OC(F)(F)O4)CC2)CC1 (centres undefined) : 4.33
COC(=O)c1cccc(NC(=O)NCCNc2ccnc(Nc3ccc(F)cc3)n2)c1 : 4.31
O=C(/C=C/c1ccc(Cl)c(Cl)c1)NCCCCCN1CCCN(C(=O)Nc2ccc(Cl)c(Cl)c2)CC1 : -0.96

Exam item: What measured inhibition goes with O=S(=O)(NCCN1CCCC1)c1ccc(-c2cccc(CNCc3ccc(F)cc3)c2)cc1 ?
Marked response: 1.16

---

inhibition listing for selected molecules.
# system_tested: Solute carrier family 2, facilitated glucose transporter member 1 (Homo sapiens) (UniProt P11166)
# Sequence (P11166 whole entry): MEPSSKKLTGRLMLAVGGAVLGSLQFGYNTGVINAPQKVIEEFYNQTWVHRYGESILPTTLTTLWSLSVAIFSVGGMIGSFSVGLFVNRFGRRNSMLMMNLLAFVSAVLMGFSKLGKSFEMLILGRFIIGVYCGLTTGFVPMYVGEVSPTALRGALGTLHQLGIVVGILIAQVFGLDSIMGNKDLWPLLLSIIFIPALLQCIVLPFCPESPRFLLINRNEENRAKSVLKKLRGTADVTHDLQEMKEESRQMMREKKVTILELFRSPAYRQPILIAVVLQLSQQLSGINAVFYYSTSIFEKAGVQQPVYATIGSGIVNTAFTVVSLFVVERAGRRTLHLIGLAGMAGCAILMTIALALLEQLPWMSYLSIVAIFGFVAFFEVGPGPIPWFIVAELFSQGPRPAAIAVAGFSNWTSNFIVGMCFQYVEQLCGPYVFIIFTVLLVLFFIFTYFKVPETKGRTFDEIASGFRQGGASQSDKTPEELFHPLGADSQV
# experimental_protocol: ST_JUDE_LEISH: Cytotoxicity at 2uM final concentration against transgenic Leishmania Mexicana promastigotes LmGLUT1 that are glucose transport deficient and complemented with the human glucose transporter GLUT1. Activity is measured by DNA content using SYBR green in vitro
# Assay type: functional
Number in %, nothing else.

// worked examples, inhibition included
CSc1ccc2nccc(Nc3ccc(Oc4ccccc4)cc3)c2c1 : 5.73
CN1CCC(NCc2ccc(-c3ccc(S(=O)(=O)NCc4ccccc4)cc3)cc2)CC1 : 0.4
Nc1cccc(C=CC(=O)N=c2cc[nH]c3ccccc23)c1 : -0.24

Turning to the following molecule.
Exam item: Would you mind telling me what inhibition value was observed for Cc1cccnc1CNc1nccc2c(C)c(C)[nH]c12 ?
Marked response: 2.2

---

# system_tested: Solute carrier family 2, facilitated glucose transporter member 1 (Homo sapiens) (UniProt P11166)
# experimental_protocol: ST_JUDE_LEISH: Cytotoxicity at 2uM final concentration against transgenic Leishmania Mexicana promastigotes LmGLUT1 that are glucose transport deficient and complemented with the human glucose transporter GLUT1. Activity is measured by DNA content using SYBR green in vitro
# Format: functional
measured_metric: inhibition
Number first, unit second: that is the form wanted.

Please review the following examples before continuing.
O=C(N[C@@H](Cc1ccccc1)[C@H](O)CNC1CCCc2ccccc21)c1cc(C2CCCC2)cc(N2CCCC2=O)c1 (stereo not given in full) : -0.02%
CCOc1ncccc1CN1CCC(N2CCc3cc(NC(=O)c4cc(C)on4)ccc32)C1 (stereo not given) : -0.44%
CN(C)CCN1CCN(Cc2cccc(-c3csc(-c4nc5ccccc5[nH]4)c3)c2)CC1 : 0.51%

Exam item: Request the reported inhibition associated with Cc1cc(=O)[nH]c(-n2nc(C)cc2NC(=O)CC(c2ccccc2)c2ccccc2)n1
Marked response: 14.8%

Exam item: Thanks! And Cc1cc(C)cc(OCC(O)CN(Cc2cc(Cl)cc(Cl)c2)C(=O)Nc2ccc(Cl)cc2)c1 (stereo not given) ?
Marked response: 0.89%

---

Each item that follows carries a reported inhibition.
# system_tested: Glucose transporter (Leishmania mexicana)
# experimental_protocol: ST_JUDE_LEISH: Cytotoxicity at 2uM final concentration against transgenic Leishmania Mexicana promastigotes LmGT2 that are glucose transport deficient and complemented with the L. Mexicana glucose transporter 2. Activity is measured by DNA content using SYBR green in vitro
# Type: functional
Respond numerically; units are % and should not be typed.

Exam item: Name the reported inhibition value associated with the molecule CN1CCC(C(=O)Nc2ccc(-c3ccc(-c4nc5ccccc5[nH]4)s3)cc2)CC1
Marked response: 0.49

---

List of inhibition values.
# system_tested: Solute carrier family 2, facilitated glucose transporter member 1 (Homo sapiens) (UniProt P11166)
# experimental_protocol: ST_JUDE_LEISH: Cytotoxicity at 2uM final concentration against transgenic Leishmania Mexicana promastigotes LmGLUT1 that are glucose transport deficient and complemented with the human glucose transporter GLUT1. Activity is measured by DNA content using SYBR green in vitro
# Format: functional
Kindly answer with a numeric value in %, unit omitted.

Exam item: Entry under review: CN1CCN(c2ccnc3ccc(NC(=O)N(C)c4ccc(Cl)c(Cl)c4)cc23)CC1 . Reported inhibition?
Marked response: -0.11

Exam item: Input Cn1cccc1C(=O)NCC(CCNc1cc(=O)c2ccccc2[nH]1)NCc1cc(Br)cc(Br)c1 (stereo not given)
Marked response: 0.88

Exam item: Next: CC(C)N(CCOc1ccc2c(c1)N(C(=O)Nc1ccc(Cl)c(Cl)c1)CC2)C(C)C
Marked response: -0.91

Exam item: Consider next the compound Clc1ccc(CNCC2CCN(CC3CCCCC3)CC2)cc1Cl in the same way.
Marked response: -1.58

Exam item: What about O=C(Nc1cccc(C(F)(F)F)c1)Nc1cc(F)c(F)cc1Cl ?
Marked response: 1.86
